Target: CDK12 (nuclear staining in CAL-120 cells) (Homo sapiens, UniProt Q9NYV4)
Construct: endogenous in cells; host or cells: CAL-120 human breast cancer cells (DSMZ ACC 459)
Sequence (Q9NYV4 whole entry): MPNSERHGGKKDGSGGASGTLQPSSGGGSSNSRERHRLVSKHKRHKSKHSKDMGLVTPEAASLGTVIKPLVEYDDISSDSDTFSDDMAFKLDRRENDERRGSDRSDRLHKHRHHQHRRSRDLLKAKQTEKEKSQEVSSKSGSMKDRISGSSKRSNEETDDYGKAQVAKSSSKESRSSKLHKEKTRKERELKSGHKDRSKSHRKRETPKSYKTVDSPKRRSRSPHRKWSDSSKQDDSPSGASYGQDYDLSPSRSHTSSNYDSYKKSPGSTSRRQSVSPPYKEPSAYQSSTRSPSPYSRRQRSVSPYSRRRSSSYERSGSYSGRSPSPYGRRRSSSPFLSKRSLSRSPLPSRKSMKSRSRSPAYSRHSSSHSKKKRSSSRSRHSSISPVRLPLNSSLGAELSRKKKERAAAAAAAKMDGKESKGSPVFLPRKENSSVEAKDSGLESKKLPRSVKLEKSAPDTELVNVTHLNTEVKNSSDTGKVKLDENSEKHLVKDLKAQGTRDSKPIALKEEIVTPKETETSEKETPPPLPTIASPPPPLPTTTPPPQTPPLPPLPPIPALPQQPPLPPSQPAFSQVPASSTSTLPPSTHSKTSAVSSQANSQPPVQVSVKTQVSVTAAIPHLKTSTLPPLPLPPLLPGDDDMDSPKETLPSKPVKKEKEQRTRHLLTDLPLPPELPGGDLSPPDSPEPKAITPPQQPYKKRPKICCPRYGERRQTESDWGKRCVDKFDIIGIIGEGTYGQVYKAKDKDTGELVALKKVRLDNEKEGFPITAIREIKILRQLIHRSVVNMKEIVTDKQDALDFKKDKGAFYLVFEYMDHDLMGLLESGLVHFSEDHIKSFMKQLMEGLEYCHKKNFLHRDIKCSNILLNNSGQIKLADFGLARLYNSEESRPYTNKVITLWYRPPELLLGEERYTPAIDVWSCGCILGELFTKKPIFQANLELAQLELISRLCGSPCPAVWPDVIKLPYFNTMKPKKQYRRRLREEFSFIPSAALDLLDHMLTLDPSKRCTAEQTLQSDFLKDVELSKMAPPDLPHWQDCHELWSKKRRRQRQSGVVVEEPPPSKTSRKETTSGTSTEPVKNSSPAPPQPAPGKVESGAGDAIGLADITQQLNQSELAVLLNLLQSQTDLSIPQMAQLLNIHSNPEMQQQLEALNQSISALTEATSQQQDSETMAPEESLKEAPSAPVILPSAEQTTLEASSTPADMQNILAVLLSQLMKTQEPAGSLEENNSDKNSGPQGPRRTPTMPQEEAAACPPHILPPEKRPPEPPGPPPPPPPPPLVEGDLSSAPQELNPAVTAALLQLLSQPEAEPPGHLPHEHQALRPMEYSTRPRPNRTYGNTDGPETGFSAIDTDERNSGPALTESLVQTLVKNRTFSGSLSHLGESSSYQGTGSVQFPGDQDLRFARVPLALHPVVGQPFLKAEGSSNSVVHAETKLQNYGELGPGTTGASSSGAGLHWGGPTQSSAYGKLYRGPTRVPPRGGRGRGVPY
Sequence (O75909 whole entry partner): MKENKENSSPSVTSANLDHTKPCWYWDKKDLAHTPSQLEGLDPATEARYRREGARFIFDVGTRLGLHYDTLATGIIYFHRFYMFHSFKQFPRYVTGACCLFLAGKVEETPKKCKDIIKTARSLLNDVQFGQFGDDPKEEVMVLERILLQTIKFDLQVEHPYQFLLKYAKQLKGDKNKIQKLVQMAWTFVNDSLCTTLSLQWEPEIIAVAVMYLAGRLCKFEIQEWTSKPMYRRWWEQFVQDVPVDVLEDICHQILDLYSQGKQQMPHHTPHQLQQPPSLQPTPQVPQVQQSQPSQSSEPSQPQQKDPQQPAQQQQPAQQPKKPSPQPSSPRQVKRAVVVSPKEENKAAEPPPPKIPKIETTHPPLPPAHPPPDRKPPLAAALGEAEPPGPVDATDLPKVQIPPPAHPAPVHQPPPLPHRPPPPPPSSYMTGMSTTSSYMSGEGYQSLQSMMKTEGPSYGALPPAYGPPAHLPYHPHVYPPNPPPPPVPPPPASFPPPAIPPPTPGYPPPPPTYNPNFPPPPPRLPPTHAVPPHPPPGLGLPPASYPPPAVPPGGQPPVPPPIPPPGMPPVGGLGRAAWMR
Experiment: CDK12 nuclear protein level: immunofluorescence/high content analysis (CAL-120)
Format: cell-based
Conditions: CAL-120 cells, 24 h, immunofluorescence; 50% reduction of nuclear CDK12 staining intensity; median; read-out: CDK12 degradation IF, DC50- [mol/l] (median)
Hi! Just check whether DC50 is below 6 nM. Below gives label 1, equal or above gives label 0.

>  <compound>
N=S1(=O)CCN(c2nc(NCc3nc4ccccc4[nH]3)n3ncc(Br)c3n2)CC1 [Example 145]

>  <category>
label 0

$$$$
>  <compound>
CC1(O)CCN(c2nc(NCc3nc4ccccc4[nH]3)n3ncc(Br)c3n2)C1 (stereo not shown) [Example 225]

>  <category>
label 0

$$$$
>  <compound>
CN(CC(C)(C)O)c1nc(NCc2nc3c(F)c(F)ccc3[nH]2)n2ncc(C(F)(F)F)c2n1 [Example 402]

>  <category>
label 0

$$$$
>  <compound>
CN1CCN(c2nc(NCc3nc4c(F)c(F)ccc4[nH]3)n3ncc(C4CC4)c3n2)CC1 [Example 159]

>  <category>
label 1

$$$$
>  <compound>
Fc1ccc2[nH]c(CNc3nc(N4CCOCC4)nc4c(-c5cncs5)cnn34)nc2c1F.O=C(O)C(F)(F)F [Example 442]

>  <category>
label 1

$$$$
>  <compound>
CN(CC(C)(C)O)c1nc(NCc2nc3cc(F)c(F)cc3[nH]2)n2ncc(Br)c2n1 [Example 347]

>  <category>
label 1

$$$$

====

Molecular target: CDK12/CycK (Homo sapiens)
Assay: CDK12/CycK high ATP kinase assay (TR-FRET, 2 mM ATP)
Conditions: 2 mM ATP (high ATP); median; read-out: CDK12/CyclinK, 2 mM ATP (high ATP), IC50-[mol/l] (median)
pIC50: −log10 of the molar value.

>  <molecule>
CNC1CCN(c2nc(NCc3nc4ccccc4[nH]3)n3ncc(Br)c3n2)CC1 [Example 272]

>  <system_under_test>
CDK12/CycK (Homo sapiens)

>  <pIC50>
< 4.70

$$$$
>  <molecule>
Fc1ccccc1-c1cnn2c(NCc3nc4ccccc4[nH]3)nc(N3CCOCC3)nc12 [Example 95]

>  <system_under_test>
CDK12/CycK (Homo sapiens)

>  <pIC50>
< 4.70

$$$$
>  <molecule>
Brc1cnn2c(NCc3nc4ccccc4[nH]3)nc(N3C[C@@H]4CN[C@@H]4C3)nc12.O=C(O)C(F)(F)F [Example 267]

>  <system_under_test>
CDK12/CycK (Homo sapiens)

>  <pIC50>
< 4.70

$$$$

====

The following molecules are listed with their measured IC50 values.
Target: CDK12/CycK (Homo sapiens, UniProt Q9NYV4)
Sequence (Q9NYV4 with tags, fused parts or gaps): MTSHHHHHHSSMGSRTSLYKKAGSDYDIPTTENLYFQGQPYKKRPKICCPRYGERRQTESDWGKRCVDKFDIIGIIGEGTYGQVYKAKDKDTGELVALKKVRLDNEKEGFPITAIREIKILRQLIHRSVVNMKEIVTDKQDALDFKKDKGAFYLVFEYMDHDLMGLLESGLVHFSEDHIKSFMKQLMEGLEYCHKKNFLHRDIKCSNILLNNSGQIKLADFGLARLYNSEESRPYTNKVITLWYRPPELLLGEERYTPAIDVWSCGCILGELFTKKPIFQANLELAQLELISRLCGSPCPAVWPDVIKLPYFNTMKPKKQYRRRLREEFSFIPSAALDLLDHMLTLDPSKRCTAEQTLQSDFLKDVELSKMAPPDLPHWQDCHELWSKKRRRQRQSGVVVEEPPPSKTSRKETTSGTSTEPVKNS
Sequence (O75909 1-300 partner limits assumed): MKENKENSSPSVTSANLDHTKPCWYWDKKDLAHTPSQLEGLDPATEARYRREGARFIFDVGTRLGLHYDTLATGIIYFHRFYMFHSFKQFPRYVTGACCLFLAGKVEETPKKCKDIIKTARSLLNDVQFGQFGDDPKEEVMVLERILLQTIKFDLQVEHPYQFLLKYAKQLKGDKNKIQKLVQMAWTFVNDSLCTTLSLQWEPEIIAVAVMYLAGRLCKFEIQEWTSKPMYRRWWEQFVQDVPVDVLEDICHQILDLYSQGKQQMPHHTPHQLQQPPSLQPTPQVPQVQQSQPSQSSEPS
Test: CDK12/CycK high ATP kinase assay (TR-FRET, 2 mM ATP)
Details: 2 mM ATP (high ATP); median; read-out: CDK12/CyclinK, 2 mM ATP (high ATP), IC50-[mol/l] (median)
readout: IC50

>  <molecule>
Brc1cnn2c(NCc3nc4ccccc4[nH]3)nc(N3CC4CCNC4C3)nc12 (stereo not shown)

>  <system_under_test>
CDK12/CycK (Homo sapiens, UniProt Q9NYV4)

>  <result>
> 20 µM

$$$$
>  <molecule>
CCNC1CCN(c2nc(NCc3nc4ccccc4[nH]3)n3ncc(Br)c3n2)CC1

>  <system_under_test>
CDK12/CycK (Homo sapiens, UniProt Q9NYV4)

>  <result>
> 20 µM

$$$$
>  <molecule>
COC(C)(C)CNc1nc(NCc2nc3ccccc3[nH]2)n2ncc(Br)c2n1

>  <system_under_test>
CDK12/CycK (Homo sapiens, UniProt Q9NYV4)

>  <result>
> 17.9 µM

$$$$
>  <molecule>
c1ccc2[nH]c(CNc3nc(N4CCOCC4)nc4c(C5CCCC5)cnn34)nc2c1

>  <system_under_test>
CDK12/CycK (Homo sapiens, UniProt Q9NYV4)

>  <result>
> 20 µM

$$$$
>  <molecule>
CC(C)c1cnn2c(NCc3nc4ccccc4[nH]3)nc(N3CCN(C)CC3)nc12

>  <system_under_test>
CDK12/CycK (Homo sapiens, UniProt Q9NYV4)

>  <result>
> 20 µM

$$$$
>  <molecule>
CN1CCN(c2nc(NCc3nc4ccccc4[nH]3)n3ncc(CC(F)(F)F)c3n2)CC1

>  <system_under_test>
CDK12/CycK (Homo sapiens, UniProt Q9NYV4)

>  <result>
> 20 µM

$$$$
>  <molecule>
CC(C)c1cnn2c(NCc3nc4ccccc4[nH]3)nc(N3CC4(COC4)C3)nc12

>  <system_under_test>
CDK12/CycK (Homo sapiens, UniProt Q9NYV4)

>  <result>
> 20 µM

$$$$
>  <molecule>
CN1CC[C@H]2CN(c3nc(NCc4nc5ccccc5[nH]4)n4ncc(Br)c4n3)C[C@H]21

>  <system_under_test>
CDK12/CycK (Homo sapiens, UniProt Q9NYV4)

>  <result>
> 20 µM

$$$$
>  <molecule>
Cc1cnn2c(NCc3nc4ccccc4[nH]3)nc(N3CCOCC3)nc12

>  <system_under_test>
CDK12/CycK (Homo sapiens, UniProt Q9NYV4)

>  <result>
> 20 µM

$$$$
>  <molecule>
CN(C)CCOc1nc(NCc2nc3ccccc3[nH]2)n2ncc(Br)c2n1

>  <system_under_test>
CDK12/CycK (Homo sapiens, UniProt Q9NYV4)

>  <result>
> 20 µM

$$$$
